Field: pEC50. Provide a value for each of the molecules that follow.
target: human recombinant mGluR5 (Homo sapiens); construct: tetracycline removed 3-7 days before the assay; assay: positive modulation of mGluR5, calcium based FLIPR assay in HEK 293 cells; conditions: HEK 293 cell line expressing human recombinant mGluR5; EC50 of the modulation of the glutamate response (glutamate approx. 5% basal stimulation); peak height of Ca release fluorescence signal
For clarity, pEC50 is expressed as the negative log10 of concentration in mol/L.

# pEC50 of `O=C(Cn1nc(-c2ccc(F)cc2)nc1-c1ccc(F)cc1)N1CCN(c2cc(Cl)ncn2)CC1` = 6.92

# pEC50 of O=C(Cn1nc(-c2ccc(F)cc2)nc1-c1ccc(F)cc1)N1CCN(c2cc(OCC3CCCO3)ncn2)CC1 (stereo not shown) = 7.23

# pEC50 of `COc1cc(N2CCN(C(=O)Cn3nc(-c4ccc(F)c(F)c4)nc3-c3ccccc3)CC2)ncn1` = 6.44

# pEC50 of `O=C(Cn1nc(-c2ccc(F)cc2)nc1-c1ccc(F)cc1)N1CCN(c2cc(N3CCCC3)ncn2)CC1` = 6.46

# pEC50 of CN(CC1CCOC1)c1cc(N2CCN(C(=O)Cn3nc(-c4ccc(F)cc4)nc3-c3ccc(F)cc3)CC2)ncn1 (stereo not shown) = 6.70

# pEC50 of `Cc1ccnc(N2CCN(C(=O)Cn3nc(-c4ccc(F)c(C)c4)nc3CC(C)C)CC2)c1` = 6.42

# pEC50 of `O=C(Cn1nc(-c2ccc(F)cc2)nc1C1CCCCC1)N1CCN(c2ccccn2)CC1` = 5.81

---

Field: pEC50. Provide a value for each of the molecules that follow.
target: human recombinant mGluR5 (Homo sapiens, UniProt P41594); construct: tetracycline removed 3-7 days before the assay; experiment: positive modulation of mGluR5, calcium based FLIPR assay in HEK 293 cells; details: HEK 293 cell line expressing human recombinant mGluR5; EC50 of the modulation of the glutamate response (glutamate approx. 5% basal stimulation); peak height of Ca release fluorescence signal
Sequence (P41594 21-1212): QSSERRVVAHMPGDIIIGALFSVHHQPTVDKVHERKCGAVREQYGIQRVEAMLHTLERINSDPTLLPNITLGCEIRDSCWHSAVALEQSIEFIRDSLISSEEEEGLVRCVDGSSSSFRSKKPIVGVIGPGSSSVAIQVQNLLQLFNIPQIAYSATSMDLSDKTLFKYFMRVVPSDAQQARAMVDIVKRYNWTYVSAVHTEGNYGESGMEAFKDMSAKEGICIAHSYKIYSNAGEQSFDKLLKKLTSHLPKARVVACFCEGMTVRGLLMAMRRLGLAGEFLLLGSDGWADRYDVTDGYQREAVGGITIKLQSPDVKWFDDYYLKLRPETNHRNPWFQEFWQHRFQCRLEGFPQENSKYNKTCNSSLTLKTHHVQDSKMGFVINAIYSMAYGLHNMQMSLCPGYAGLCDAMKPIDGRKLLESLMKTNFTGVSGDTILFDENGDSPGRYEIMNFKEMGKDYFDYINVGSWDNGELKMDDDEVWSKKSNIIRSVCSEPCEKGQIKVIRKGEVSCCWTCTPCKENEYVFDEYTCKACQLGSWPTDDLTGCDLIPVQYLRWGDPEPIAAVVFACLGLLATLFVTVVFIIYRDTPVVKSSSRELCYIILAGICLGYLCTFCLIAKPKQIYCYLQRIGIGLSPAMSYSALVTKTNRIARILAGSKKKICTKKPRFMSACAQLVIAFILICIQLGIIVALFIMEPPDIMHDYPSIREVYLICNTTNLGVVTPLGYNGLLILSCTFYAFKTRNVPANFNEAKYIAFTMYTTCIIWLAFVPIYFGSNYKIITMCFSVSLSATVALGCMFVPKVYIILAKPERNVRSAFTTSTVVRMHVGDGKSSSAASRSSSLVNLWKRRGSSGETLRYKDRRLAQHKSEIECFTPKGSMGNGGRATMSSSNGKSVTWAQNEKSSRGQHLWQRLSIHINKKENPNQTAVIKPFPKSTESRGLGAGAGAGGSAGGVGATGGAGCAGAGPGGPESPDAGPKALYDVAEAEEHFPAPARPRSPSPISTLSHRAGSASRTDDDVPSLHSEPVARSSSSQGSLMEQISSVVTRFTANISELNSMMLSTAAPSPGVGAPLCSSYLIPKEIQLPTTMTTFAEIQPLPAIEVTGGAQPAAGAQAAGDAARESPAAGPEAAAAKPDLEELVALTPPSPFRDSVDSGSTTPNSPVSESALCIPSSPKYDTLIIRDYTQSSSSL
For clarity, pEC50 is expressed as the negative log10 of concentration in mol/L.

# pEC50 of `COc1ccc(-c2nc(-c3ccccc3)n(CC(=O)N3CCN(c4ncccc4C(F)(F)F)CC3)n2)cc1OC` = 5.72

# pEC50 of `COc1ccc(-c2nc(C3CCCCC3)n(CC(=O)N3CCN(c4ncccn4)CC3)n2)cc1` = 6.64

# pEC50 of `COc1ccc(-c2nc(-c3ccc(F)cc3)n(CC(=O)N3CCN(c4cccnn4)CC3)n2)cc1` = 6.94

# pEC50 of `CC(C)c1ccc(-c2nc(-c3ccccc3)nn2CC(=O)N2CCN(c3ncccn3)CC2)cc1` = 7.46

# pEC50 of `COc1ccc(-c2nc(-c3ccccc3)n(CC(=O)N3CCN(c4cc(C)ccn4)CC3)n2)cc1` = 7.10

# pEC50 of `O=C(Cn1nc(-c2ccc(F)cc2)nc1-c1ccc(F)cc1)N1CCN(c2cc(NCc3ccccn3)ncn2)CC1` = 6.54

# pEC50 of `Cc1ccnc(N2CCN(C(=O)Cn3nc(-c4ccc(F)c(C)c4)nc3C3CCCC3)CC2)c1` = 6.31

# pEC50 of `COc1ccc(Cl)cc1N1CCN(C(=O)Cn2nc(-c3ccc(F)cc3)nc2-c2ccc(F)cc2)CC1` = 5.70

# pEC50 of `O=C(Cn1nc(-c2ccc(F)cc2)nc1-c1ccc(F)cc1)N1CCN(c2ccccn2)CC1` = 7.25

# pEC50 of `CNc1cc(N2CCN(C(=O)Cn3nc(-c4ccc(F)cc4)nc3-c3ccc(F)cc3)CC2)ncn1` = 6.72

# pEC50 of `COc1ccc(-c2nc(-c3ccc(F)cc3)n(CC(=O)N3CCN(c4ncc(Cl)cn4)CC3)n2)cc1` = 7.64

# pEC50 of `COc1ccnc(N2CCN(C(=O)Cn3nc(-c4ccc(F)c(C)c4)nc3CCC(C)C)CC2)c1` = 6.82

# pEC50 of `COc1cnc(N2CCN(C(=O)Cn3nc(-c4ccc(F)cc4)nc3-c3ccc(F)cc3)CC2)nc1` = 7.60

# pEC50 of `O=C(Cn1nc(-c2ccc(F)cc2)nc1-c1ccc(F)cc1)N1CCN(c2cc(NC3CCC3)ncn2)CC1` = 6.81

# pEC50 of `O=C(Cn1nc(-c2ccc(F)cc2)nc1-c1ccc(F)cc1)N1CCN(c2cc(Br)ccn2)CC1` = 7.10
